Test system: Human Skin Normal Cells (Cell System Fb cells)
method: Cytotoxicity assay for human skin normal cells, trypan blue
Format: cell-based
conditions-used: human skin normal cells, 0.0005 mM, 3 days
Listing: Viability % of selected molecules
Give the value, in units of %, as a plain number.

CO[C@@]12[C@H](COC(N)=O)C3=C(C(=O)C(C)=C(N)C3=O)N1C[C@@H]1N[C@@H]12 [Mitomycin, mitomycin, reference compound] = 60
CC(O)c1cc2c(o1)C(=O)c1cccc(O)c1C2=O (single isomer, unassigned; isomer 2) [α-Isomer] = 100
CC(O)c1cc2c(o1)C(=O)c1cccc(O)c1C2=O (single isomer, unassigned; isomer 2) [β-Isomer] = 100

In: Value wanted: Viability % (Human Skin Normal Cells (Cell System Fb cells)) of entry CC(O)c1cc2c(o1)C(=O)c1cccc(O)c1C2=O (racemic) [Racemate]
Out: 100
